Collected literature values of IC50 measured for Epidermal growth factor receptor (Homo sapiens).

# annotated cases, reported IC50 shown
• COc1c(NC(=O)/C=C/[C@H]2CCCN2C(C)C)ccc2ncnc(Nc3ccc(OCc4ccccn4)c(Cl)c3)c12 = 100 to 1000 nM
• CS(=O)(=O)c1c(F)c(F)c(F)c(F)c1C(=O)NCCn1nc(-c2ccc(Oc3ccccc3)cc2)c2c(N)ncnc21 = > 1000 nM

For Epidermal growth factor receptor (Homo sapiens), provide IC50 of `CN1CC[C@@H](CCNC(=O)Nc2snc(OCc3cc4c(cc3F)CCO4)c2C(N)=O)C1` please.
9890 nM
